# Tested on: Escherichia coli
# protocol-description: Antimicrobial activity against wild-type Escherichia coli Eco523 by broth microdilution/CLSI method
# Type: functional
# condition-summary: Escherichia coli, Eco523; read-out: MIC
measurement-name: MIC

> print(dat)
                                   compound  value.reported
1  CCO[C@H]1CN(c2ncc(C(=O)O)s2)CC[C@H]1NC(=O)c1[nH]c(C)c(Cl)c1Cl (racemic)       > 8 µg/mL
2  COCC(COC)NC(=O)c1nc(N2CC[C@@H](NC(=O)c3[nH]c(C)c(Cl)c3Cl)[C@@H](OC)C2)sc1C(=O)O        23 µg/mL
3  CO[C@@H]1CN(c2ncc(C(=O)O)s2)CC[C@@H]1NC(=O)c1[nH]c(C)c(Cl)c1Cl      > 64 µg/mL
4  Cc1[nH]c(C(=O)N[C@@H]2CCN(c3ncc(C(=O)O)s3)CC23OCC2(CC2)CO3)c(Cl)c1Cl      > 64 µg/mL
5  CO[C@H]1CN(c2ncc(C(=O)O)s2)CC[C@@H]1NC(=O)c1[nH]c(C)c(Cl)c1Cl      > 64 µg/mL
6  CO[C@H]1CN(c2nc(C(=O)NCC3(C)OCCO3)c(C(=O)O)s2)CC[C@H]1NC(=O)c1[nH]c(C)c(Cl)c1Cl        11 µg/mL
7  CO[C@H]1CO[C@]2(CN(c3ncc(C(=O)O)s3)CC[C@H]2NC(=O)c2[nH]c(C)c(Cl)c2Cl)OC1 (relative stereo)      > 64 µg/mL
8  CO[C@H]1CN(c2ncc(C(=O)O)s2)CC[C@H]1NC(=O)c1[nH]c(C)c(Cl)c1Cl (relative stereo)      > 64 µg/mL
9  Cc1[nH]c(C(=O)N[C@@H]2CCN(c3ncc(C(=O)O)s3)C[C@@H]2C)c(Cl)c1Cl (racemic)       > 8 µg/mL
